Species: Rattus norvegicus
ASSAY_REMARKS: In vitro inhibitory concentration for 50% vasorelaxant effect was measured on rat aorta strips
Format: functional
QUANTITY_KIND: IC50 (nM)
Lab book: enter the figure in nM, no units written.

IC50 for `CC(C)(C)O/N=C(\c1cc(Br)c(F)cc1O)c1c(O)ccc[n+]1[O-]` ?
280

* * *

TARGET: Sulfonylurea receptor 2, Kir6.2 (Homo sapiens, UniProt O60706+Q14654)
Sequence (Q14654 whole entry): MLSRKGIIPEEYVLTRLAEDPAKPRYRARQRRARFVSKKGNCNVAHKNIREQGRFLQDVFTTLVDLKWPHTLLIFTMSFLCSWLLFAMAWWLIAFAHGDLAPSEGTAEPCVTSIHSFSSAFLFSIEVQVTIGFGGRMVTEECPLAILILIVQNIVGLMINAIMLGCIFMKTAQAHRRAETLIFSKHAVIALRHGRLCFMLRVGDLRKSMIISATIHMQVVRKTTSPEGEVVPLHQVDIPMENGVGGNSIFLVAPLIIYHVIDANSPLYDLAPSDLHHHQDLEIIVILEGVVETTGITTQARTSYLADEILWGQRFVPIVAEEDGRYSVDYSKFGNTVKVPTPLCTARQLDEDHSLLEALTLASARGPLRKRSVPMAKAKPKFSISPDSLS
Sequence (O60706 whole entry): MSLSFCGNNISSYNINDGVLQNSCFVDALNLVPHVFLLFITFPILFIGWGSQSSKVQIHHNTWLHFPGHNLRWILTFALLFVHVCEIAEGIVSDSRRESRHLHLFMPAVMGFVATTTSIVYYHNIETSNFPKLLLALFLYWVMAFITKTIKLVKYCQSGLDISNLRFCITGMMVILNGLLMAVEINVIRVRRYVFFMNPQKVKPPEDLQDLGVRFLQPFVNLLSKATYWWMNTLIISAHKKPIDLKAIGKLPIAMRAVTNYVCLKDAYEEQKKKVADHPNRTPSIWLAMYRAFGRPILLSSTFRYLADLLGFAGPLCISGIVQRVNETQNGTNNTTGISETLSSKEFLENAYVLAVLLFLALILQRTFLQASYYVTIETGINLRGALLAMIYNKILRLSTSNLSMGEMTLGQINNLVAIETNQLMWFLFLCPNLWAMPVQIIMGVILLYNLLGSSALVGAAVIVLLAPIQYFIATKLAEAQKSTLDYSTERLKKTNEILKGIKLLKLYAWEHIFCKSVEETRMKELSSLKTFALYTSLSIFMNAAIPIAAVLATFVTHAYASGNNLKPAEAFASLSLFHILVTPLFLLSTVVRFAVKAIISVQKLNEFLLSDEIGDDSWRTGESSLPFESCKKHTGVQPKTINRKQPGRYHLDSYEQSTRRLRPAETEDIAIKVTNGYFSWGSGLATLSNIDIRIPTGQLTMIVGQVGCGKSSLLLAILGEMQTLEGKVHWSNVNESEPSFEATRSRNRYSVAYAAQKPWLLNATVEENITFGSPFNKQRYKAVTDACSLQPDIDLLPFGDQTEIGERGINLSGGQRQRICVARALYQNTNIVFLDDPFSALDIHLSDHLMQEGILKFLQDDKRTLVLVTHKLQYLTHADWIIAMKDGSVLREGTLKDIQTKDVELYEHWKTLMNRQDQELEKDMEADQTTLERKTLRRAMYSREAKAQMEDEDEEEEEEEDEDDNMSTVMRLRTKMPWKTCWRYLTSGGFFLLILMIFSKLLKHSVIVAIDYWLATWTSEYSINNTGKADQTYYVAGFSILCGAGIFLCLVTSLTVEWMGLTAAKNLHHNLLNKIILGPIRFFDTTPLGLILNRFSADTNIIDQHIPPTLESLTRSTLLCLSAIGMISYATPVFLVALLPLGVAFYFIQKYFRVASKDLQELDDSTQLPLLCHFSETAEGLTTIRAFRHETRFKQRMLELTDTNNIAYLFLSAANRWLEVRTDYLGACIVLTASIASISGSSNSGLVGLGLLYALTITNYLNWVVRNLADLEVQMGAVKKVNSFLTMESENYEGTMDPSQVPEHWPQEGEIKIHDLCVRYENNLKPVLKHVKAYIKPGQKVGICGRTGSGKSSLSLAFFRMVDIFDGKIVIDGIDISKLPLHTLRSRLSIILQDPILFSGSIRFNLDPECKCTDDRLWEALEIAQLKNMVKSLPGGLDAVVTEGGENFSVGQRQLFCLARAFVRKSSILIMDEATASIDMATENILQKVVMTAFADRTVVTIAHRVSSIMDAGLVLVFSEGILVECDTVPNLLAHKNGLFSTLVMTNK
ASSAY_REMARKS: Inhibition of human SUR2A/Kir6.2 expressed in Xenopus oocytes
Would you kindly list IC50 for each of these compounds?
API: value field is a number in nM; no unit string.

Give the measured IC50 of `CNC(=S)NS(=O)(=O)c1cc(CCNC(=O)c2cc(Cl)ccc2OC)ccc1OC` .
4300

For COc1ccc(Cl)cc1C(=O)NCCc1ccc(S(=O)(=O)NC(=O)NC2CCCCC2)cc1 [GLYBURIDE] then?
220

* * *

TARGET: Sulfonylurea receptor 1, Kir6.2 (Homo sapiens, UniProt Q09428+Q14654)
Sequence (Q09428 whole entry, one chain of several): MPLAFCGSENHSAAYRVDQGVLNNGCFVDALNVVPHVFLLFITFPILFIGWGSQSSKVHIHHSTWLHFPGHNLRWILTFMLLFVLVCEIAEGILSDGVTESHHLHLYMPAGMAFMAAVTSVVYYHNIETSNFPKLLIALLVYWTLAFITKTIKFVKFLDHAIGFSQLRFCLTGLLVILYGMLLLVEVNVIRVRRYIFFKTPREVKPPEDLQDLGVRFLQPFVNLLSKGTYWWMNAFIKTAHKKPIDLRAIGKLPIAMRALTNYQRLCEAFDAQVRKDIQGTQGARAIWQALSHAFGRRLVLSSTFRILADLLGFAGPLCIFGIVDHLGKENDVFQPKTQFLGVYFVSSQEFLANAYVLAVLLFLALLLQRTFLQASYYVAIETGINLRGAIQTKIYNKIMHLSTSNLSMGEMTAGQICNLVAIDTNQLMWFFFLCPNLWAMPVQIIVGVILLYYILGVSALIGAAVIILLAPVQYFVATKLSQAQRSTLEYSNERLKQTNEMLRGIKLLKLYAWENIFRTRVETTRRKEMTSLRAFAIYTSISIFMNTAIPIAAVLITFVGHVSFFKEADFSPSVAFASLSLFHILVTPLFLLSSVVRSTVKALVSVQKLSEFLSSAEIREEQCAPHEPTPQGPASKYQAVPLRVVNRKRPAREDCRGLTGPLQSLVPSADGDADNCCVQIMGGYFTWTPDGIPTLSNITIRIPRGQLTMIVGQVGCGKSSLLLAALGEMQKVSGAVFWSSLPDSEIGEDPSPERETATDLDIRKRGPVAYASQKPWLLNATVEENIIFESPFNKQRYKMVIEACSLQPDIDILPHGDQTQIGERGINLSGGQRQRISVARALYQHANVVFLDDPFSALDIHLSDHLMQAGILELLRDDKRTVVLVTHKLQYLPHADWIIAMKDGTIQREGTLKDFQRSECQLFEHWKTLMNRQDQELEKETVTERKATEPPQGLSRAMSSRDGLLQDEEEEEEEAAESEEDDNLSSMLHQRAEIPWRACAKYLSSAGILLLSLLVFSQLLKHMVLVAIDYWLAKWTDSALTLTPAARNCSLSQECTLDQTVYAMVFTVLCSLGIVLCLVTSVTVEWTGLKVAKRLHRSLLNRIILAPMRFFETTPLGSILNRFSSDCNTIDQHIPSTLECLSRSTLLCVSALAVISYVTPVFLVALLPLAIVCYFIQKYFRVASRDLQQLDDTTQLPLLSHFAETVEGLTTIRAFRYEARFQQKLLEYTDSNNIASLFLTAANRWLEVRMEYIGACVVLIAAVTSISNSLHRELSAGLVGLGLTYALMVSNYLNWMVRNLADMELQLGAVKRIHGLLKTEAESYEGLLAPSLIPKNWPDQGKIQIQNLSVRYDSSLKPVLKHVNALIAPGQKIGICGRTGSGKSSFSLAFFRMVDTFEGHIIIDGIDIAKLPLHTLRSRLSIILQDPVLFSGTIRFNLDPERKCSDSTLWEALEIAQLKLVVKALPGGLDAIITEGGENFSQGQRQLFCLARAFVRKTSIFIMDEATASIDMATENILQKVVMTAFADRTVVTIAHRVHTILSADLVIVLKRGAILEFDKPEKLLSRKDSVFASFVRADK
ASSAY_REMARKS: Inhibition of human SUR1/Kir6.2 expressed in CHO cells
QUANTITY_KIND: IC50 (µM)
Report the figure in µM without appending any unit label.

I'd like to know its IC50. The compound in question is `CNC(=S)NS(=O)(=O)c1cc(CCNC(=O)c2cc(Cl)ccc2OC)ccc1OC`
8.2

* * *

Assignment: determine reported pEC50 for the given molecules.
Species: Rattus norvegicus
ASSAY_REMARKS: The effective dose for relaxation was measured on rat aorta rings
Assay type: functional
CONDITION: read-out: ED50 (the source's name)
Convention used: pEC50 is expressed as -log10 of the molar concentration.

For the molecule CC1=Nc2ccc(Cl)cc2S(=O)(=O)N1 [DIAZOXIDE] , what pEC50 is on record?
4.71

Follow-up item: CC(NC1=NS(=O)(=O)c2cnccc2N1)C(C)(C)C (centres undefined)
3.81

Another molecule to look at: CC(NC1=NS(=O)(=O)c2cc(Cl)cnc2N1)C(C)(C)C (centres undefined)
5.64

One more molecule: CC(NC1=NS(=O)(=O)c2cccnc2N1)C(C)(C)C (centres undefined)
5.12

* * *

ASSAY_REMARKS: Inhibition of glyburide binding to K-ATP potassium channel
QUANTITY_KIND: IC50 (nM)
All answers are understood in nM, so give the number only.

Entry `N#C/N=C(\Nc1cccnc1)NC1(c2cccc(Cl)c2)CCC1` : reported IC50 = ?
18

* * *

TARGET: Sulfonylurea receptor 2, Kir6.2 (Homo sapiens, UniProt O60706+Q14654)
ASSAY_REMARKS: Inhibition of SUR2B/Kir6.2
Assay type: protein-complex assay
QUANTITY_KIND: Kd (µM)
Give the number; µM is assumed, so skip it.

Report Kd for `CNC(=S)C1(C(=O)c2ccc(-n3ccnc3)cc2)CCC1` please.
8.5

* * *

ASSAY_REMARKS: Inhibition of Kir6.1/SUR1 potassium channel K-ATP
Design: species or system Homo sapiens
QUANTITY_KIND: pIC50
For clarity, pIC50 is expressed as the negative log10 of concentration in mol/L.

Need pIC50 of `C1CCC(/N=C(\NC23CC4CC(CC(C4)C2)C3)N2CCOCC2)CC1` , thanks.
4.49

* * *

TARGET: Potassium voltage-gated channel subfamily A member 5 (Homo sapiens)
Sequence (P22460 whole entry): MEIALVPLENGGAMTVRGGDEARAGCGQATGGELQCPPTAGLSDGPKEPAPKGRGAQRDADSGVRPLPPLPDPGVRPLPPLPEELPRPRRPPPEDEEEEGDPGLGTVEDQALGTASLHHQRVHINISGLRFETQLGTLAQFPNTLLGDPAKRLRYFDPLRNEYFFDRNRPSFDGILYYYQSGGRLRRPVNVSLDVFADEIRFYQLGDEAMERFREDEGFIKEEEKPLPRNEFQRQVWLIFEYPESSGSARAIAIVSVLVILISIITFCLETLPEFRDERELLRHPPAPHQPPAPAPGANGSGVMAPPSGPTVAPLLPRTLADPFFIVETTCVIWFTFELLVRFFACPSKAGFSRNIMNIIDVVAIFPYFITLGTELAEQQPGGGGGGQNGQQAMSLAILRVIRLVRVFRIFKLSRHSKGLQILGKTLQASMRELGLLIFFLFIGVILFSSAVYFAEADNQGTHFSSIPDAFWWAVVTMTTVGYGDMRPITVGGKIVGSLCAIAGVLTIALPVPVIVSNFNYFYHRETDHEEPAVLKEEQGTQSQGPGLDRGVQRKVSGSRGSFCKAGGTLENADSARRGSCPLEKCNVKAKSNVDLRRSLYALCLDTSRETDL
ASSAY_REMARKS: Inhibition of voltage-gated potassium channel subunit Kv1.5
Format: functional
QUANTITY_KIND: pIC50
Scale note: pIC50 = -log10(concentration in M).

# query: pIC50 | item `O=C1NCCN1CCN1CCC(c2cn(-c3ccc(F)cc3)c3ccc(Cl)cc23)CC1` | system: Potassium voltage-gated channel subfamily A member 5 (Homo sapiens)
5.70

* * *

TARGET: Voltage-gated potassium channel, IKs; KCNQ1(Kv7.1)/KCNE1(MinK) (Homo sapiens, UniProt P15382+P51787)
Sequence (P51787 whole entry): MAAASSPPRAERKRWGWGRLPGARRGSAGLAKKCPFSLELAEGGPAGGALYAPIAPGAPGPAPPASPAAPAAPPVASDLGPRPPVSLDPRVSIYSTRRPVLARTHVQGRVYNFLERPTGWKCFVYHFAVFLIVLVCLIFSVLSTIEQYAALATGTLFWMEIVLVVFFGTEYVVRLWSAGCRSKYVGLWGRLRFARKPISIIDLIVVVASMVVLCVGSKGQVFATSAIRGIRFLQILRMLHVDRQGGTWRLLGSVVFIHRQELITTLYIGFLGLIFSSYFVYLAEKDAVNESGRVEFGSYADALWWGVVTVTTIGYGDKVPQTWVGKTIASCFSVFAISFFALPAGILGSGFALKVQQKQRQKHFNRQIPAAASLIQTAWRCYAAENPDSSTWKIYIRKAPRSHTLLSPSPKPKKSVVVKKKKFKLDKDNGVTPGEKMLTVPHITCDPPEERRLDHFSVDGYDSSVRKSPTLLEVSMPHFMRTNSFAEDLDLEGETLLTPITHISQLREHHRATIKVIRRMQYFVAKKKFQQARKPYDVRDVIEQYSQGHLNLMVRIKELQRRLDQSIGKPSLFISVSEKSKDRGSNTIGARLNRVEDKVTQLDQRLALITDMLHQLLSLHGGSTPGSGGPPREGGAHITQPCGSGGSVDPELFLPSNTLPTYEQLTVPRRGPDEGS
ASSAY_REMARKS: Inhibition of Iks current KvLQT1 potassium channel
QUANTITY_KIND: IC50 (nM)
Numbers only here, please. The scale is nM.

Which value of IC50 has been reported for NC(=O)C(c1ccccc1)(c1ccc(F)cc1)c1ccccc1F (stereo unspecified) in the records?
2000

* * *

TARGET: Gardos channel, KCNN4/IK1 (Homo sapiens)
ASSAY_REMARKS: Selectivity for gardos channel; (Gardos channel vs 2000 nM for the cardiac IKs channel).)
QUANTITY_KIND: pIC50
pIC50 here: minus log base 10 of the concentration, concentration in moles per litre.

Looking for the measured pIC50 of NC(=O)C(c1ccccc1)(c1ccc(F)cc1)c1ccccc1F (stereo unspecified) , can you help?
8.05
